# System: RXF 393
# assay.procedure: NCI tumour cell line growth inhibition, 48 h
The source made the active and inactive calls. No stated cut-off is given here; in the data, active = GI50 up to about 1.1 µM and inactive = higher.

[
  {
    "compound": "O=C(O)[C@H]1[C@@H](C2CCCCC2)O[C@@H](C2CCCCC2)O[C@H]1C(F)(F)F",
    "tested.system": "RXF 393",
    "GI50": "22.9 µM (inactive)"
  },
  {
    "compound": "CC(C)(N)CO[C@H]1C[C@H]2CC[C@@]1(C)C2(C)C",
    "tested.system": "RXF 393",
    "GI50": "12.9 µM (inactive)"
  },
  {
    "compound": "COC1CCC(OS(C)(=O)=O)C(C)O1 (centres undefined)",
    "tested.system": "RXF 393",
    "GI50": "> 10 µM (inactive)"
  },
  {
    "compound": "COc1ccc(/C=C2\\C(=O)N(C3OC(COC(C)=O)C(OC(C)=O)C(OC(C)=O)C3OC(C)=O)c3ccccc3N=C2N)cc1 (centres undefined)",
    "tested.system": "RXF 393",
    "GI50": "21.8 µM (inactive)"
  },
  {
    "compound": "CN(C)C(=S)S [SODIUM DIMETHYLCARBAMODITHIOATE]",
    "tested.system": "RXF 393",
    "GI50": "83.9 µM (inactive)"
  },
  {
    "compound": "CC1=C[C@@H]2[C@@H](CC(CO)=C[C@H]3[C@@H]4C(C)(C)[C@]4(OCC(C)C)[C@H](OCC(C)C)[C@@H](C)[C@]23O)C1=O",
    "tested.system": "RXF 393",
    "GI50": "1.54 µM (inactive)"
  },
  {
    "compound": "COC1=CC(=O)C2=C(C1=O)[C@H]1CC[C@]3(C)C(=O)CC[C@H]3[C@@H]1CC2",
    "tested.system": "RXF 393",
    "GI50": "28.1 µM (inactive)"
  },
  {
    "compound": "COc1ccc(CNc2nc3ccc(C(F)(F)F)cc3nc2-c2ccccc2)cc1OC",
    "tested.system": "RXF 393",
    "GI50": "8.89 µM (inactive)"
  },
  {
    "compound": "O=S(=O)(N=S(c1ccccc1)c1ccccc1)c1ccccc1",
    "tested.system": "RXF 393",
    "GI50": "> 100 µM (inactive)"
  }
]

====

# System: PC-3
# assay.procedure: NCI tumour cell line growth inhibition, 48 h
Calls of active or inactive are those of the source. No stated cut-off is given here; in the data, active = GI50 up to about 1.1 µM and inactive = higher.

[
  {
    "compound": "COc1cc2c3cc1Oc1c(OC)c(OC)cc4c1C(Cc1ccc(O)c(c1)-c1cc(ccc1OC)CC3N(C)CC2)N(C)CC4 (stereo not given)",
    "GI50": "20.4 µM (inactive)"
  },
  {
    "compound": "O=[N+]([O-])c1ccc2c3c1[C@H]1O[C@H]1c1cccc(c1-3)[C@@H]1O[C@H]21",
    "GI50": "2.3 µM (inactive)"
  },
  {
    "compound": "O=[N+]([O-])c1c(F)c(F)c2c(c1F)Nc1ccccc1S2",
    "GI50": "9.16 µM (inactive)"
  },
  {
    "compound": "CO[C@H]1O[C@@H]2CO[C@@H](c3ccccc3)O[C@H]2[C@@H]2CC=CCC[C@]12O",
    "GI50": "40.9 µM (inactive)"
  },
  {
    "compound": "CC1(C)C2CCC(N)(C2)C1O (stereo not given)",
    "GI50": "> 100 µM (inactive)"
  },
  {
    "compound": "CC(=O)Oc1cc(S(=O)(=O)Nc2nc(N)n[nH]2)c(S)cc1Cl",
    "GI50": "> 100 µM (inactive)"
  },
  {
    "compound": "CCCC(=O)Nc1cn(COC)c(C(=O)N2C[C@@H]3C[C@]34C2=CC(=O)c2[nH]cc(C)c24)n1",
    "GI50": "6.81 µM (inactive)"
  },
  {
    "compound": "C=CCCC1(CC(Sc2ccccc2)P(=O)(c2ccccc2)c2ccccc2)OCCO1 (stereo not given)",
    "GI50": "> 10 µM (inactive)"
  },
  {
    "compound": "COC(=O)c1ccc(/N=N/N(C)COc2ccc(C#N)cc2)cc1",
    "GI50": "> 100 µM (inactive)"
  },
  {
    "compound": "COc1ccccc1C(=O)NO",
    "GI50": "> 100 µM (inactive)"
  }
]
